Origin of measurements: patent US10774051B2

# EXPERIMENTAL_SYSTEM: human P2X7 receptor (Homo sapiens, UniProt Q99572, R270H/Y155H)
# ASSAY_TEXT: Evaluation of human P2X7 receptor inhibitory activity (Yo-Pro uptake, BzATP stimulation, FLIPR TETRA)
# Type: cell-based
# APPLIED_CONDITIONS: antagonistic activity for the human P2X7 receptor; read-out: IC50
pIC50: −log10 of the molar value.

[
  {
    "COMPOUND": "COc1cn(Cc2ccc(F)c(Cl)c2)c(Nc2c(C)ccc(C)c2F)nc1=O [Compound I-0927]",
    "pIC50": "> 8.00"
  },
  {
    "COMPOUND": "CCOc1cc(Nc2nc(=O)c(OC)cn2Cc2ccc(F)c(Cl)c2)c(C)cc1F [Compound I-0919]",
    "pIC50": "7.00 to 8.00"
  },
  {
    "COMPOUND": "COc1cnc(Nc2cc(C)c(Cl)cc2C)n(Cc2ccccc2)c1=O [Compound I-0981]",
    "pIC50": "6.00 to 6.30"
  },
  {
    "COMPOUND": "COc1cn(Cc2cc(F)c(F)c(F)c2)c(Nc2cc(-c3cscn3)ccc2C)nc1=O [Compound I-0802]",
    "pIC50": "> 8.00"
  },
  {
    "COMPOUND": "Cc1nc2cc(C)c(Nc3nc(=NC#N)c(F)cn3Cc3cc(F)c(F)c(F)c3)cc2s1 [Compound I-1286]",
    "pIC50": "> 8.00"
  },
  {
    "COMPOUND": "CCc1cc(OC)ccc1Nc1nc(=O)c(F)cn1Cc1cc(F)c(F)c(F)c1 [Compound I-1197]",
    "pIC50": "> 8.00"
  },
  {
    "COMPOUND": "CCOc1cn(Cc2ccc(F)c(Cl)c2)c(Nc2cc(OC)c(OC)cc2C)nc1=O [Compound I-0795]",
    "pIC50": "> 8.00"
  }
]

---

Each record here notes measured IC50.
# EXPERIMENTAL_SYSTEM: human P2X7 receptor (Homo sapiens, UniProt Q99572, R270H/Y155H)
# ASSAY_TEXT: Evaluation of human P2X7 receptor inhibitory activity (Yo-Pro uptake, BzATP stimulation, FLIPR TETRA)
# Assay type: cell-based
# APPLIED_CONDITIONS: antagonistic activity for the human P2X7 receptor; read-out: IC50
REPORTED_PROPERTY: IC50

[
  {
    "MOLECULE": "COCc1ccc(C)c(Nc2nc(=O)c(F)cn2Cc2cc(F)c(F)c(F)c2)c1 [Compound I-1086]",
    "EXPERIMENTAL_SYSTEM": "human P2X7 receptor (Homo sapiens, UniProt Q99572, R270H/Y155H)",
    "REPORTED_PROPERTY": "IC50",
    "RESULT": "< 10 nM"
  },
  {
    "MOLECULE": "COC(=O)/C=C/c1ccc(C)c(Nc2nc(=O)c(OC)cn2Cc2cc(F)c(F)c(F)c2)c1 [Compound I-1079]",
    "EXPERIMENTAL_SYSTEM": "human P2X7 receptor (Homo sapiens, UniProt Q99572, R270H/Y155H)",
    "REPORTED_PROPERTY": "IC50",
    "RESULT": "10 to 100 nM"
  },
  {
    "MOLECULE": "COc1cc(C)c(Nc2nc(=O)c(Cl)nn2Cc2cc(F)c(F)c(F)c2)cc1OC [Compound I-1264]",
    "EXPERIMENTAL_SYSTEM": "human P2X7 receptor (Homo sapiens, UniProt Q99572, R270H/Y155H)",
    "REPORTED_PROPERTY": "IC50",
    "RESULT": "< 10 nM"
  },
  {
    "MOLECULE": "Cc1cc(Nc2nc(=O)c(F)cn2Cc2cc(F)c(F)c(F)c2)c(C)cc1F [Compound I-1227]",
    "EXPERIMENTAL_SYSTEM": "human P2X7 receptor (Homo sapiens, UniProt Q99572, R270H/Y155H)",
    "REPORTED_PROPERTY": "IC50",
    "RESULT": "< 10 nM"
  },
  {
    "MOLECULE": "COc1ccc(Nc2nc(=O)cnn2Cc2ccccc2F)c(C)c1 [Compound I-1275]",
    "EXPERIMENTAL_SYSTEM": "human P2X7 receptor (Homo sapiens, UniProt Q99572, R270H/Y155H)",
    "REPORTED_PROPERTY": "IC50",
    "RESULT": "100 to 500 nM"
  },
  {
    "MOLECULE": "COc1cn(Cc2cc(F)cc(Cl)c2)c(Nc2cc3ncccc3cc2C)nc1=O [Compound I-0773]",
    "EXPERIMENTAL_SYSTEM": "human P2X7 receptor (Homo sapiens, UniProt Q99572, R270H/Y155H)",
    "REPORTED_PROPERTY": "IC50",
    "RESULT": "100 to 500 nM"
  },
  {
    "MOLECULE": "CCOc1cc(C)c(Nc2nc(=O)c(F)cn2Cc2cc(F)cc(F)c2)cc1F [Compound I-1061]",
    "EXPERIMENTAL_SYSTEM": "human P2X7 receptor (Homo sapiens, UniProt Q99572, R270H/Y155H)",
    "REPORTED_PROPERTY": "IC50",
    "RESULT": "10 to 100 nM"
  }
]

---

# EXPERIMENTAL_SYSTEM: human P2X7 receptor (Homo sapiens, UniProt Q99572, R270H/Y155H)
# ASSAY_TEXT: Evaluation of human P2X7 receptor inhibitory activity (Yo-Pro uptake, BzATP stimulation, FLIPR TETRA)
# Type: cell-based
# APPLIED_CONDITIONS: 1321N1 cells stably expressing human P2X7 receptor; BzATP stimulation, Yo-Pro uptake; read-out: IC50 (antagonistic activity for the human P2X7 receptor), class symbol

[
  {
    "COMPOUND": "COc1cn(Cc2ccc(F)c(F)c2)c(Nc2cccc3[nH]c(C)cc23)nc1=O [Compound I-0488]",
    "IC50": "10 to 100 nM"
  },
  {
    "COMPOUND": "COc1cccc(Nc2nc(=O)c(OC)cn2Cc2cc(F)cc(Cl)c2)c1C [Compound I-0509]",
    "IC50": "< 10 nM"
  },
  {
    "COMPOUND": "COc1cn(Cc2ccc(F)c(F)c2)c(Nc2cccc3sccc23)nc1=O [Compound I-0485]",
    "IC50": "< 10 nM"
  },
  {
    "COMPOUND": "COc1cn(Cc2ccc(F)c(F)c2)c(Nc2cccc(C)c2C)nc1=O [Compound I-0324]",
    "IC50": "< 10 nM"
  },
  {
    "COMPOUND": "CCc1ccccc1Nc1nc(=O)c(Br)cn1Cc1ccccc1 [Compound I-0107]",
    "IC50": "100 to 500 nM"
  },
  {
    "COMPOUND": "COc1cn(Cc2ccccc2C)c(Nc2cccc(Cl)c2C)nc1=O [Compound I-0043]",
    "IC50": "100 to 500 nM"
  },
  {
    "COMPOUND": "COc1cn(Cc2cccc(Cl)c2)c(Nc2cccc(N(C)C)c2C)nc1=O [Compound I-0432]",
    "IC50": "10 to 100 nM"
  },
  {
    "COMPOUND": "COc1cn(Cc2ccccc2)c(Nc2cc(-n3cccc3)ccc2C)nc1=O [Compound I-0239]",
    "IC50": "100 to 500 nM"
  },
  {
    "COMPOUND": "CCc1cc(OC)c(OC)cc1Nc1nc(=O)c(F)cn1Cc1ccc(F)cc1 [Compound I-0267]",
    "IC50": "< 10 nM"
  },
  {
    "COMPOUND": "Cc1cc(C)c(Nc2nc(=O)c(C(=O)NCC(=O)N(C)C)cn2Cc2ccccc2)cc1C [Compound I-0226]",
    "IC50": "10 to 100 nM"
  },
  {
    "COMPOUND": "CCc1ccc(Cl)cc1Nc1nc(=O)c(OC)cn1Cc1ccccc1 [Compound I-0175]",
    "IC50": "10 to 100 nM"
  },
  {
    "COMPOUND": "COc1cn(Cc2ccc(F)c(Cl)c2)c(Nc2cc(SC(F)(F)F)ccc2C)nc1=O [Compound I-0546]",
    "IC50": "10 to 100 nM"
  },
  {
    "COMPOUND": "COc1cn(Cc2ccccc2)c(NCc2ccccc2N(C)C)nc1=O [Compound I-0067]",
    "IC50": "500 to 1000 nM"
  },
  {
    "COMPOUND": "COc1cn(Cc2ccccc2)c(Nc2cccc3occc23)nc1=O [Compound I-0103]",
    "IC50": "100 to 500 nM"
  },
  {
    "COMPOUND": "COc1ccc(Nc2nc(=O)c(OC)cn2Cc2cc(F)cc(F)c2)c(C)c1 [Compound I-0538]",
    "IC50": "10 to 100 nM"
  },
  {
    "COMPOUND": "COc1cn(Cc2ccccc2F)c(Nc2cccc(Cl)c2C)nc1=O [Compound I-0040]",
    "IC50": "10 to 100 nM"
  },
  {
    "COMPOUND": "COc1cc(C)c(Nc2nc(=O)c(F)cn2Cc2ccc(F)c(Cl)c2)cc1C [Compound I-0349]",
    "IC50": "< 10 nM"
  },
  {
    "COMPOUND": "COc1cn(Cc2ccc(F)c(Cl)c2)c(Nc2cccc(C(F)(F)F)c2C)nc1=O [Compound I-0468]",
    "IC50": "10 to 100 nM"
  },
  {
    "COMPOUND": "COc1cn(Cc2ccc(F)cc2)c(Nc2cccc(N(C)C)c2C)nc1=O [Compound I-0401]",
    "IC50": "10 to 100 nM"
  },
  {
    "COMPOUND": "Cc1ccccc1Cn1cc(O)c(=O)nc1Nc1cccc(C(F)(F)F)c1Cl [Compound I-0015]",
    "IC50": "500 to 1000 nM"
  },
  {
    "COMPOUND": "COc1cn(Cc2ccccc2)c(Nc2cccc(OC(F)F)c2C)nc1=O [Compound I-0093]",
    "IC50": "10 to 100 nM"
  },
  {
    "COMPOUND": "COc1cn(Cc2cc(F)cc(F)c2)c(Nc2cc3c(cc2C)COC3)nc1=O [Compound I-0003]",
    "IC50": "< 10 nM"
  },
  {
    "COMPOUND": "COc1cn(Cc2ccccc2OC(F)(F)F)c(Nc2cccc(Cl)c2C)nc1=O [Compound I-0303]",
    "IC50": "100 to 500 nM"
  },
  {
    "COMPOUND": "COc1cn(Cc2ccccc2)c(Nc2cc(N3CCCC3=O)ccc2C)nc1=O [Compound I-0393]",
    "IC50": "10 to 100 nM"
  }
]
